# assayProcedure: Total Fluorescence Counterscreen for Inhibitors of the Interaction of Thyroid Hormone Receptor and Steroid Receptor Coregulator 2
# conditionDescription: TRb/SRC2 Texas Red total fluorescence interference; series mostly up to 106 µM
Among all 280,000 compounds or so, about 820 (0.29%) were called active. Inconclusive results (about 1%) are left out. Calls follow the shape of the dose curve; as a rule, active = well fitted curve in either direction with a large enough effect; inconclusive = small, poorly fitted or top-dose-only effect; inactive = flat fitted curve, though single readings scatter. The list comes from a sample in which actives are over-represented; it also holds close analogues and randomly drawn compounds.
Can you answer with just one of these options? Y (active), N (inactive)

>>> group("COc1cccc(CN2C(=O)CCC2(C)C(=O)NC2CCCCCC2)c1 (configuration not stated)")
"N"
>>> group("CCc1ccccc1N1C(=O)CN(S(=O)(=O)CC)CC1(C)C(=O)NC1CCCCC1 (configuration not stated)")
"Y"
>>> group("COc1cc(OC)cc(C(=O)Nc2ccc3nc(Nc4cccc(C(F)(F)F)c4)cc(C)c3c2)c1")
"N"
>>> group("O=C(NCc1cccnc1)C(=O)NCC(c1cccnc1)N1CCN(c2ccccc2)CC1 (configuration not stated)")
"N"

Problem: Identify the outcome logged in this assay for the molecule shown: `Cc1cc(C)c(N)c(Cl)c1`
Solution: N

Problem: Continue with `COc1cc2ccccc2cc1C(=O)Nc1cccc(-c2nc3ccccc3o2)c1`
Solution: N

Problem: Now give it for `CCc1ccccc1NC(=O)Cn1c(=O)n(-c2cccc(C)c2)c(=O)c2c1c1cc(OC)ccc1n2C` too.
Solution: N

Problem: And the next one, Cc1[nH]c2ccccc2c1C(c1ccccc1)c1cccs1 (configuration not stated) ?
Solution: N

Problem: Also `CCS(=O)(=O)N1CCc2cc(C(=O)NCc3ccc(C)cc3)ccc21` , if possible.
Solution: N

Problem: Follow-up entry: `Cc1cc2oc(=O)cc(CN3CCN(S(=O)(=O)c4cccs4)CC3)c2cc1C(C)C`
Solution: Y

Problem: Try the molecule `COc1ccccc1CNC(=O)c1ccccc1NC(=O)c1nsc2ccccc12`
Solution: N

Problem: // repeat for CCOC(=O)c1ccc(NC(=O)CC2C(=O)N(c3cccc(OC)c3)C(=O)N2C2CCCCC2)cc1 (configuration not stated) and report
Solution: N

----------
# assayProcedure: Total Fluorescence Counterscreen for Inhibitors of the Interaction of Thyroid Hormone Receptor and Steroid Receptor Coregulator 2
# conditionDescription: TRb/SRC2 Texas Red total fluorescence interference; series mostly up to 106 µM
In all, about 280,000 compounds went through this assay and about 820 (0.29%) were called active. Another 1% or so got no clear call; they are omitted. Calls follow the shape of the dose curve; as a rule, active = well fitted curve in either direction with a large enough effect; inconclusive = small, poorly fitted or top-dose-only effect; inactive = flat fitted curve, though single readings scatter. The sample as a whole holds a higher share of actives than the screen did.
Please answer using one outcome listed in active, inactive

Solved cases (6 shown):
>>> group("CCC(=O)Nc1cccc(C(=O)OCc2cc(=O)n3nc(CC)sc3n2)c1")
"inactive"
>>> group("CCOc1ccc2nc(N3CCC(C(=O)Nc4cc(C)ccc4C)CC3)sc2c1")
"inactive"
>>> group("O=C(/C=C/Nc1ccccc1OC(F)(F)F)C(F)(F)F")
"inactive"
>>> group("COC(=O)c1sc(=S)n(-c2ccccc2)c1N")
"inactive"
>>> group("CCc1cccc(C)c1Nc1c(-c2ccc(N(C)C)cc2)nc2ncccn12")
"inactive"
>>> group("Cn1c2ccccc2c(=O)c2c(O)cccc21")
"inactive"

Problem: How did this test come out for `CCOc1cc(NC(=S)NCc2ccco2)c(OCC)cc1NC(=O)c1ccco1` ?
Solution: inactive

Problem: Consider next the compound `COc1ccccc1NC(=O)c1cc(S(=O)(=O)NCCc2ccccc2)ccc1F` in the same way.
Solution: inactive

Problem: What do you have for `Cc1c(NC(=O)C(C)(C)C)cccc1-c1nc2ccccc2s1` ?
Solution: inactive

Problem: Field entry: COc1ccc2c(c1)C(SCC(=O)NCc1ccccc1)CC(C)(C)O2 (configuration not stated)
Solution: inactive

Problem: Another compound to look at: CC1CCCN(c2nc3c(S(=O)(=O)c4ccc(C(C)C)cc4)nnn3c3ccsc23)C1 (configuration not stated)
Solution: inactive

Problem: One more compound: `CCc1nnc2c3ccccc3nc(N3CCN(c4ccc(C)cc4C)CC3)n12`
Solution: inactive

Problem: What do you have for `COC(=O)c1ccc(NC(=O)CCc2c(C)nc3c(c(C)nn3-c3ccc(C)cc3)c2C)cc1` ?
Solution: inactive

Problem: Note, next up: CC(NC(=O)c1cc2c(=O)n3ccccc3nc2n(C(C)C)c1=N)c1ccccc1 (configuration not stated)
Solution: inactive

Problem: How about this compound: `C=Cc1ccc(Cn2c(C(=O)O)c(CNC3CCCC3)c3ccc(C)cc32)cc1`
Solution: inactive

Problem: Request: `CN(C(=O)CSc1nnc(NC(=O)Nc2ccccc2)s1)c1ccccc1`
Solution: inactive

Problem: // repeat for `COc1ccccc1NC(=O)CN1C(=O)c2ccccc2Sc2ccc(C(=O)N3CCCC3)cc21` and report
Solution: inactive

Problem: // query: `COc1ccc(CCNC(=O)CCCCn2c(=O)c3ccccc3n(Cc3ccccc3C)c2=O)cc1OC`
Solution: inactive

Problem: For `CCOC(=O)c1ccc(NC(=O)CCS(=O)(=O)c2ccc3c(c2)oc(=O)n3C)cc1` then?
Solution: inactive

Problem: What would you report for `COc1ccc(CNc2nc(-c3ccccc3)nn2C(=O)c2ccccc2OC)cc1` ?
Solution: inactive

Problem: What do we get for Cc1nc2nc(SCC(=O)NC3CCC(C)CC3)nn2c(C)c1Cc1ccccc1Cl (configuration not stated) ?
Solution: inactive

Problem: Same read-out for CCCCNC(=O)c1ccc2c(c1)NC(=O)C(C(C)C)N2 (configuration not stated) ?
Solution: active

Problem: Ok, now CCOc1cc(C2c3c(-c4ccc(Br)cc4)n[nH]c3C(=O)N2c2ccc(Cl)cc2)ccc1O (configuration not stated)
Solution: inactive

Problem: What about `CCCC/C=C/CCCCO` ?
Solution: inactive

Problem: Same read-out for `COc1cccc(CNC(=O)c2ccc3c(c2)N(Cc2ccc(C(F)(F)F)cc2)C(=O)c2ccccc2S3)c1OC` ?
Solution: active

Problem: Now consider `CCc1cnc2c(c1SCC(=O)N1CCC(C)CC1)c(=O)n(C)c(=O)n2C` .
Solution: inactive

Provenance of the data: PubChem BioAssay AID1479
